Origin of values: PubChem BioAssay (NCATS)

system: C33A; experiment: Primary qHTS to identify gynecologic anti-cancer compounds using libraries of approved drugs and bioactive compounds (AID 1345084); settings: Gynecologic cancer cell panel viability, ATPlite luminescence, 48 h; series mostly up to 57.5 µM; note: nearly all actives have a fitted effect of over 55% in size; note: potency is the fitted concentration of half-maximal effect
Results filed as inconclusive are left out. Active and inactive are the calls of the source. Calls come from the whole dose curve; as a rule, active = well fitted cell-killing curve with a large enough effect; inconclusive = small, poorly fitted or top-dose-only effect, or effect the other way; inactive = flat fitted curve, though single readings scatter.
recorded_metric: Potency

Reference set (5 entries):
compound	experimental_value
CNC(=O)c1ccc(N2C(=S)N(c3cnc(C#N)c(C(F)(F)F)c3)C(=O)C23CCC3)cc1F	inactive
Cc1cc(CN2CCN(c3c(Br)cnc4nc(-c5ccc(N6CCN(C)CC6)cc5)[nH]c34)CC2)no1	inactive
O=C(c1cncc(Br)c1)N1CCC(N2CCCC2)CC1	inactive
COc1ccc2c(c1)CC[C@@H](CN(C)CC(=O)O)[C@H]2c1ccccc1	inactive
CCc1cc2c(cc1N1CCC(N3CCOCC3)CC1)C(C)(C)c1[nH]c3cc(C#N)ccc3c1C2=O	inactive

Which measured Potency belongs to C[C@]12CC[C@H](O)CC1=CCC1C2CC[C@]2(C)C(n3cnc4ccccc43)=CCC12 (some centres undefined) , tested on C33A?
inactive

Which measured Potency belongs to `Cc1c(CN2CCN(S(C)(=O)=O)CC2)sc2c(N3CCOCC3)nc(-c3cnc(N)nc3)nc12` , tested on C33A?
1580 nM (active)

Which measured Potency belongs to `Cc1cc(Nc2ncnc3ccc(-c4ccc(CNCCS(C)(=O)=O)o4)cc23)ccc1Oc1ccn2ncnc2c1` , tested on C33A?
inactive

Which measured Potency belongs to `Cc1ccc(C(N)=O)cc1Nc1nccc(-c2cn(C(C)C)c3cnccc23)n1` , tested on C33A?
3160 nM (active)

Which measured Potency belongs to `C=CC(=O)N1CCC[C@@H](n2nc(-c3ccc(Oc4ccccc4)cc3)c3c(N)ncnc32)C1` , tested on C33A?
inactive

Which measured Potency belongs to `NC(=O)c1cccc2cn(-c3ccc([C@@H]4CCCNC4)cc3)nc12` , tested on C33A?
inactive

Which measured Potency belongs to `Cn1c(CNc2ccc(C(=N)N)cc2)nc2cc(C(=O)N(CCC(=O)O)c3ccccn3)ccc21` , tested on C33A?
inactive

====

assay: qHTS Screen of the MIPE 4.0 Collection Against Ewings Sarcoma (RDES) (AID 1259252); settings: RD-ES Ewing sarcoma viability, CellTiter-Glo, 48 h; series mostly up to 45.8 µM; note: nearly all actives have a fitted effect of over 35% in size
Results filed as inconclusive are left out. The source made the active and inactive calls. Calls come from the whole dose curve; as a rule, active = well fitted inhibition curve with a large enough effect; inconclusive = small, poorly fitted or top-dose-only effect; inactive = no such curve, though single readings can be large or run the other way.
Could you please pick one outcome from this set? label 1 for active, label 0 for inactive

compound	assigned_class
O=C1CCC[C@@H]2[C@H]3CCC[N+]4([O-])CCC[C@@H](CN12)[C@@H]34 (stereo not given in full)	label 0
COc1cc2c(Oc3ccc(NC(=O)C4(C(=O)Nc5ccc(F)cc5)CC4)cc3F)ccnc2cc1OCCCN1CCOCC1	label 1
Cc1cc(C(=O)N2CCN(c3cccc(Cl)c3)CC2)n(-c2ccccc2)n1	label 1
O=C(O)CCCc1c[nH]c2ccccc12	label 0
COc1cc2c(Nc3ccc(NC(=O)c4ccccc4)cc3)ncnc2cc1OCCCN1CCOCC1	label 1
CC1(C)O[C@@H]2C[C@@H]3[C@H]4C[C@@H](F)C5=CC(=O)C=C[C@]5(C)[C@@]4(F)[C@@H](O)C[C@]3(C)[C@]2(C(=O)CO)O1	label 0

Please let me know the test result on file for `COc1cccc(-c2ccc(NC(=O)C3=C(C(=O)O)CCC3)c(F)c2)c1` .
label 1

Please let me know the test result on file for `COc1c(N2C[C@@H]3CCCN[C@H]3C2)c(F)cc2c(=O)c(C(=O)O)cn(C3CC3)c12` .
label 0

Please let me know the test result on file for CC1(O)CC(c2nc(-c3ccc4ccc(-c5ccccc5)nc4c3)c3c(N)nccn23)C1 (stereo not given) .
label 1

====

tested on: DIV30; test: qHTS profiling for inhibitors of Plasmodium falciparum proliferation (AID 504749); note: nearly all actives have a fitted effect of over 60% in size; details: P. falciparum in erythrocytes, SYBR Green DNA, 72 h; series mostly up to 28.7 µM
Results filed as inconclusive are left out. Activity calls are given as the source filed them. Calls come from the whole dose curve; as a rule, active = well fitted inhibition curve with a large enough effect; inconclusive = small, poorly fitted or top-dose-only effect; inactive = flat fitted curve, though single readings scatter.
Could you please pick one outcome from this set? class 1 = active, class 0 = inactive

Solved entries (count: 5):
compound	assigned_class
COC(=O)C[C@](O)(CCCC(C)(C)O)C(=O)O[C@@H]1C(OC)=C[C@]23CCCN2CCc2cc4c(cc2[C@H]13)OCO4	class 1
Nc1ccn([C@@H]2CS[C@H](CO)O2)c(=O)n1	class 0
CN1c2cc(O)c(N=NC(N)=O)cc2CC1S(=O)(=O)O (centres undefined)	class 0
CC=CC1=C(C(=O)O)N2C(=O)[C@H](NC(=O)[C@H](N)c3ccc(O)cc3)[C@@H]2SC1	class 0
COc1c(N2C[C@@H]3CCCN[C@H]3C2)c(F)cc2c(=O)c(C(=O)O)cn(C3CC3)c12	class 0

Please let me know the test result on file for `Nc1ccc(S(=O)(=O)Nc2ncccn2)cc1` .
class 0

Please let me know the test result on file for `CC[C@H]1CN2CCc3cc(OC)c(OC)cc3[C@H]2C[C@@H]1C[C@@H]1NCCc2cc(OC)c(OC)cc21` .
class 1

Please let me know the test result on file for O=c1[nH]c(=O)n(C2CCCO2)cc1F (centres undefined) .
class 0

Please let me know the test result on file for `CC1(C)O[C@@H]2C[C@@H]3[C@H]4C[C@@H](F)C5=CC(=O)C=C[C@]5(C)[C@@]4(F)[C@@H](O)C[C@]3(C)[C@]2(C(=O)CO)O1` .
class 1

====

assay: Drug repurposing screens with cells derived from glioblastoma tumor samples (AID 1345199); settings: GBM patient neurospheres viability, ATP luminescence, 48 h; at 46 µM (top of the series); tumour line A; note: % is set by controls: 0 for no effect and ±100 for the full control effect; nearly all actives have a fitted effect of over 40% in size
Inconclusive results are not listed.
recorded_metric: activity, negative = cell killing (%)
The answer is to be given in %; state only the numeric part.

Reference set (5 entries):
compound	activity, negative = cell killing, %
O=C(O)CO.[NH2-].[NH2-].[Pt+2]	-24.8
COc1c(N2C[C@@H]3CCCN[C@H]3C2)c(F)cc2c(=O)c(C(=O)O)cn(C3CC3)c12	-18.3
O=c1[nH]c(=O)n(C2CCCO2)cc1F (stereo unspecified)	-9.36
CC1(C)O[C@@H]2C[C@@H]3[C@H]4C[C@@H](F)C5=CC(=O)C=C[C@]5(C)[C@@]4(F)[C@@H](O)C[C@]3(C)[C@]2(C(=O)CO)O1	-7.12
Nc1ccn([C@@H]2CS[C@H](CO)O2)c(=O)n1	-14.9

Let's switch to this compound now.
So what does the record say about activity, negative = cell killing for `CC=CC1=C(C(=O)O)N2C(=O)[C@H](NC(=O)[C@H](N)c3ccc(O)cc3)[C@@H]2SC1` ?
-26.1

====

assay: qHTS profiling of the MIPE4 collection as inhibitors of Plasmodium falciparum (HB3) proliferation (AID 743347);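 note: plate controls were DMSO vehicle wells for no effect and artemisinin wells for full effect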; details: P. falciparum HB3 in erythrocytes, SYBR Green DNA, 72 h; at 28.5 µM (top of the series) unless noted
The label is yes for growth, % of control below 7% and no for growth, % of control equal to or exceeding 7%.

Solved entries (count: 8):
compound	assigned_class
CC(C)[C@H](C(=O)Nc1ccc(C(=O)NO)cc1)c1ccccc1	no
COc1cc(=C2C=c3ccccc3=N2)[nH]c1=Cc1[nH]c(C)cc1C	yes
Cc1cccc(C=NNc2cc(N3CCOCC3)nc(OCCc3ccccn3)n2)c1	yes
COc1cc2ncnc(Nc3ccc(F)c(Cl)c3)c2cc1NC(=O)C=CCN1CCCCC1	yes
NC(=O)Nc1cc(-c2cccc(F)c2)sc1C(=O)N[C@H]1CCCNC1	yes
O=C(Nc1cc(C(F)(F)F)cc(C(F)(F)F)c1)c1cc(Cl)ccc1O	yes
Cc1ccc(S(=O)(=O)Nc2cc(Cl)ccc2C(=O)Nc2nc(-c3ccccc3)cs2)cc1	no
COc1ccc(-c2cc3c(C)nc(N)nc3n(C3CCC(OCCO)CC3)c2=O)cn1 (stereo not given)	yes

Now let's try a different one.
Consider `CN(C)CCCN=c1c2ccccc2n(C)c2[nH]c(=O)n(C)c(=O)c12` . Does its growth, % of control lie strictly below 7%?
yes

====

assay: Quantitative High-Throughput drug screen in 47 multiple myeloma cell lines against the NCATS MIPE library collection: INA6_PLB cell viability assay (AID 1918965; note: nearly all actives have a fitted effect of over 55% in size); conditions: INA6 myeloma viability, CellTiter-Glo ATP luminescence, 48 h; series mostly up to 45.8 µM
Inconclusive results are not listed. Activity calls are given as the source filed them. Calls come from the whole dose curve; as a rule, active = well fitted cell-killing curve with a large enough effect; inconclusive = small, poorly fitted or top-dose-only effect, or effect the other way; inactive = no such curve, though single readings can be large or run the other way.
Could you please pick one outcome from this set? active, inactive

compound	assigned_class
C=CC(=O)Nc1cccc(Oc2nc(Nc3ccc(N4CCN(C)CC4)cc3OC)ncc2Cl)c1	active
COc1cc(C(C)C)c2c(c1)S(=O)(=O)N(COc1cc(=O)n3cccc(OCCN4CCCCC4)c3n1)C2=O	active
NC(=O)c1cccc2cn(-c3ccc([C@@H]4CCCNC4)cc3)nc12	active
CCCCN1CCC(CNC(=O)c2c3n(c4ccccc24)CCCO3)CC1	active
COC(=O)Nc1ccc(-c2nc(N3CCOCC3)c3cnn(C4CCN(Cc5cccnc5)CC4)c3n2)cc1	active
NC1(Cc2ccc(Cl)cc2)CCN(c2ncnc3[nH]ccc23)CC1	active
COc1cc(Nc2ncc(F)c(Nc3ccc4c(n3)N(COP(=O)(O)O)C(=O)C(C)(C)O4)n2)cc(OC)c1OC	active
C1=CCOCc2cc(ccc2OCCN2CCCC2)Nc2nccc(n2)-c2cccc(c2)OCC1	active

Please let me know the test result on file for `COc1cccc2c(NCc3ccccc3)nc(-n3c(N)nc4ccccc43)nc12` .
active

Please let me know the test result on file for `O=C(O)Cn1nnc(-c2cc(N3CCC(Oc4cc(F)ccc4Br)CC3)no2)n1` .
inactive

Please let me know the test result on file for `COc1cccc(-c2ccc(NC(=O)C3=C(C(=O)O)CCC3)c(F)c2)c1` .
active

Please let me know the test result on file for `Cc1cnc(-c2cnc(NCCNc3ccc(C#N)cn3)nc2-c2ccc(Cl)cc2Cl)[nH]1` .
active
